Target: HisAviTEV-hSTING (139-342) human wild-type protein (Homo sapiens, UniProt Q86WV6, H232R)
Construct: made in house; host or cells: E. coli Rosetta 2 (DE3), co-expressed with BirA (1-321)
Sequence (Q86WV6 with tags, fused parts or gaps H232R): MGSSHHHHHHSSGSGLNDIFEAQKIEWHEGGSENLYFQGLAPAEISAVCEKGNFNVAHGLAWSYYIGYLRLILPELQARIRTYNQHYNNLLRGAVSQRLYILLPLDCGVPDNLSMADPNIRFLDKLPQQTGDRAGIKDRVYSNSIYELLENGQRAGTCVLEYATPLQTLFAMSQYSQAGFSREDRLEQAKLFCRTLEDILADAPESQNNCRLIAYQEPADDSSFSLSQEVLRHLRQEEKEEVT
Assay: Protein thermal shift assay, STING C-terminal binding domain protein
Details: test compound final concentration 0.5 mM
# reported ΔTm Hu-WT; entries follow
Write down the numeric answer in °C and omit the unit.

Sample records with ΔTm Hu-WT:
Compound | Target entity | ΔTm Hu-WT, °C
O=C(CO)NCCn1cnc2c(ncn2[C@@H]2O[C@@H]3COP(=O)(S)O[C@H]4[C@@H](F)[C@H](n5cc6c7c(ncnc75)NCCC6)O[C@@H]4COP(=O)(S)O[C@@H]2[C@@H]3O)c1=O (single isomer, unassigned) [36b] | HisAviTEV-hSTING (139-342) human wild-type protein (Homo sapiens, UniProt Q86WV6, H232R) | 10.1
NCCn1cnc2c(ncn2[C@@H]2O[C@@H]3COP(=O)(S)O[C@H]4[C@@H](F)[C@H](n5cc6c7c(ncnc75)NCCC6)O[C@@H]4COP(=O)(S)O[C@@H]2[C@@H]3O)c1=O (single isomer, unassigned) [35b] | HisAviTEV-hSTING (139-342) human wild-type protein (Homo sapiens, UniProt Q86WV6, H232R) | 10.3
NCCNc1nc(N)c2ncn([C@@H]3O[C@@H]4COP(=O)(S)O[C@H]5[C@@H](F)[C@H](n6cc7c8c(ncnc86)NCCC7)O[C@@H]5COP(=O)(S)O[C@@H]3[C@@H]4F)c2n1 (single isomer, unassigned) [45b] | HisAviTEV-hSTING (139-342) human wild-type protein (Homo sapiens, UniProt Q86WV6, H232R) | 7.5
O=P1(S)OC[C@H]2O[C@@H](n3cc4c5c(ncnc53)NCCC4)[C@H](O)[C@@H]2OP(=O)(S)OC[C@H]2O[C@@H](n3cnc4c(CO)ncnc43)[C@H](O1)[C@@H]2O (single isomer, unassigned) [17b] | HisAviTEV-hSTING (139-342) human wild-type protein (Homo sapiens, UniProt Q86WV6, H232R) | 7.4
NCCNc1nc(N)c2ncn([C@@H]3O[C@@H]4COP(=O)(S)O[C@H]5[C@@H](O)[C@H](n6cc7c8c(ncnc86)NCCC7)O[C@@H]5COP(=O)(S)O[C@@H]3[C@@H]4F)c2n1 (single isomer, unassigned) [42b] | HisAviTEV-hSTING (139-342) human wild-type protein (Homo sapiens, UniProt Q86WV6, H232R) | 5.3

# next compound below
ΔTm Hu-WT reading for Nc1nc2c(ncn2[C@@H]2O[C@@H]3COP(=O)(S)O[C@H]4[C@@H](O)[C@H](n5cc6c7c(ncnc75)NCCC6)O[C@@H]4COP(=O)(S)O[C@@H]2[C@@H]3O)c(=O)[nH]1 (single isomer, unassigned) : 9.8
